// values below are reported % reduction in water absorbed
Test: DVS measurement: % reduction in amount of water absorbed by treated hair
Design: concentration or dose not given beside the values
Details: Molecular Class II

{"compound": "O=C(OCCO)c1ccccc1O [2-Hydroxyethyl salicylate]", "% reduction in water absorbed (%)": 10}
{"compound": "CC(C)C(=O)O", "% reduction in water absorbed (%)": 5}
{"compound": "CCCCCCCC/C=C\\CCCCCCCC(=O)OCC(O)CO (centres unmarked) [Glyceryl monooleate]", "% reduction in water absorbed (%)": 5}
{"compound": "CCCCCCCCC(CO)CCCCCC (centres unmarked)", "% reduction in water absorbed (%)": 11}
{"compound": "CC(C)CCCCCCCCCCCCCCCOC(=O)CCCCCCCCCCCCCCC(C)C [Isostearyl isostearate]", "% reduction in water absorbed (%)": 11}
{"compound": "C/C(=C\\CO)CCC[C@H](C)CCC[C@H](C)CCCC(C)C", "% reduction in water absorbed (%)": 14}
{"compound": "CCOC(=O)c1cc(O)c(O)c(O)c1 [Ethyl gallate]", "% reduction in water absorbed (%)": 17}
{"compound": "CCCCCC[C@@H](O)C/C=C\\CCCCCCCC(=O)O", "% reduction in water absorbed (%)": 8.8}
{"compound": "CCCCCCCCCCCCCC(=O)OC(C)C [Isopropyl myristate]", "% reduction in water absorbed (%)": 12}
{"compound": "CCCCC/C=C\\C/C=C\\CCCCCCCC(=O)OCC [Ethyl linoleate]", "% reduction in water absorbed (%)": 8}
{"compound": "CCCCCCCC/C=C\\CCCCCCCC(=O)O", "% reduction in water absorbed (%)": 14}

###

Experiment: DVS measurement: % reduction in amount of water absorbed by treated hair
Conditions: material at 1% wt/vol

{"molecule": "O=S(=O)(O)c1ccc(O)cc1 [4-Hydroxybenzenesulphonic acid]", "% Reduction in amount of water absorbed [%]": 26}
{"molecule": "O=C(O)c1cc(O)c(O)c(O)c1", "% Reduction in amount of water absorbed [%]": 15}
{"molecule": "O=C(O)c1ccc(O)cc1O [2,4-Dihydroxybenzoic acid]", "% Reduction in amount of water absorbed [%]": 30}
{"molecule": "Nc1ccccc1O", "% Reduction in amount of water absorbed [%]": 14}
{"molecule": "Nc1ccc(C(=O)O)cc1", "% Reduction in amount of water absorbed [%]": 12}
{"molecule": "O=C(O)c1ccc(O)c(O)c1 [3,4-Dihydroxybenzoic acid]", "% Reduction in amount of water absorbed [%]": 20}
{"molecule": "O=C(O)/C=C/c1ccc(O)cc1", "% Reduction in amount of water absorbed [%]": 8.8}
{"molecule": "O=C(O)c1cc(O)ccc1O [2,5-Dihydroxybenzoic acid]", "% Reduction in amount of water absorbed [%]": 27}
{"molecule": "O=C(O)c1cc(O)c(C(=O)O)cc1O [2,5 Dihydroxyterephthalic acid]", "% Reduction in amount of water absorbed [%]": 18}
{"molecule": "Nc1ccc(O)cc1", "% Reduction in amount of water absorbed [%]": 10}
{"molecule": "O=C(O)CNc1ccc(O)cc1 [N-4-Hydroxyphenylglycine]", "% Reduction in amount of water absorbed [%]": 15}
{"molecule": "O=C(O)c1cccc(O)c1 [3-Hydroxybenzoic Acid]", "% Reduction in amount of water absorbed [%]": 20}
{"molecule": "O=C(O)c1cc(Cl)ccc1O", "% Reduction in amount of water absorbed [%]": 28}
{"molecule": "O=C(O)c1cc(O)cc(O)c1 [3,5-Dihydroxybenzoic acid]", "% Reduction in amount of water absorbed [%]": 15}
{"molecule": "Nc1cccc(O)c1", "% Reduction in amount of water absorbed [%]": 14}
{"molecule": "O=C(O)c1ccc(O)c(Cl)c1 [3-Chloro-4-hydroxybenzoic acid]", "% Reduction in amount of water absorbed [%]": 11}
{"molecule": "Nc1cccc(C(=O)O)c1", "% Reduction in amount of water absorbed [%]": 12}
{"molecule": "Cl.Nc1cccc(O)c1 [3-Hydroxyanilinium chloride]", "% Reduction in amount of water absorbed [%]": 16}
{"molecule": "O=C(O)c1c(O)cccc1O [2,6-Dihydroxybenzoic acid]", "% Reduction in amount of water absorbed [%]": 35}
{"molecule": "O=C(O)c1cc(Cl)c(O)c(Cl)c1 [3,5-Dichloro-4-hydroxybenzoic acid]", "% Reduction in amount of water absorbed [%]": 15}
{"molecule": "COc1cc(/C=C/C(=O)O)ccc1O [Trans-Ferulic Acid]", "% Reduction in amount of water absorbed [%]": 6}
